experiment: Quantitative highthroughput screen to assess conditional lethalithy of SEM cells grown in RPMI1640 with dialyzed fetal bovine serum (RPMI+ds) (AID 1963884); conditions: SEM B-ALL cells, RPMI+dialyzed FBS, CellTiter-Glo viability, 48 h; series mostly up to 45.8 µM; note: nearly all actives have a fitted effect of over 35% in size
Inconclusive results are not listed. Activity calls are given as the source filed them. Calls come from the whole dose curve; as a rule, active = well fitted cell-killing curve with a large enough effect; inconclusive = small, poorly fitted or top-dose-only effect, or effect the other way; inactive = no such curve, though single readings can be large or run the other way.
In this exercise, the only acceptable responses are active, inactive

Query: How was "C[C@@]12C[C@@]3(O)O[C@@H](O1)[C@]1(COC(=O)c4ccccc4)[C@@H]3C[C@@]12O[C@@H]1O[C@H](CO)[C@@H](O)[C@H](O)[C@@H]1O" classified in this test?
Result: inactive

Query: Returns: the outcome recorded for "CC(C)c1nn(-c2c(Cl)cccc2Cl)c2nc(Cc3ccc(OCCO)cc3)[nH]c(=O)c12" in this assay.
Result: active

Query: State the result this test recorded for "CCCCc1oc2ccccc2c1C(=O)c1cc(I)c(OCCN(CC)CC)c(I)c1" .
Result: inactive

Query: Dear all, I need the recorded test outcome for "NC(=O)Nc1cc(-c2ccc(CN3CCOCC3)cc2)sc1C(N)=O" , thank you.
Result: active

Query: For "Cc1ccc(C(=O)N(CCCN)[C@@H](c2nc3cc(Cl)ccc3c(=O)n2Cc2ccccc2)C(C)C)cc1" , which call appears in the assay record?
Result: active
